testMethodNotes: Inhibition of HCV NS3 helicase ATP hydrolysis activity in presence of poly(U) RNA
Parameters: species or system Hepacivirus hominis
What IC50 was measured for each of the following?

// IC50 value for CC(C)(C)c1ccc(S(=O)(=O)NCCCN2CCN(CCCNS(=O)(=O)c3ccc(C(C)(C)C)cc3)CC2)cc1 : 590 µM

// IC50 value for O=S(=O)(NCCCN1CCN(CCCNS(=O)(=O)c2ccc(Cl)cc2)CC1)c1ccc(Cl)cc1 : > 1000 µM

// IC50 value for CC(C)(C)c1ccc(S(=O)(=O)NCCCN2CCN(CCCNS(=O)(=O)c3ccc(-c4ccccc4)cc3)CC2)cc1 : 21 µM

// IC50 value for O=C(CCNS(=O)(=O)c1ccc(Cl)cc1)N1CCN(C(=O)CCNS(=O)(=O)c2ccc(Cl)cc2)CC1 : > 1000 µM

The values you see were collected from ChEMBL document CHEMBL4041513.
